System: human NOD2 signaling
Test: Inhibition of human NOD2 signaling in HEK-Blue-hNOD2 cells (L18-MDP stimulated, SEAP reporter)
Format: cell-based
Conditions: Homo sapiens, HEK-Blue hNOD2, HEK-Blue-hNOD2 cells, NOD2 ligand stimulation, SEAP reporter; read-out: hNOD2 IC50
Method: Materials: Human NOD32-expressing 1TEK293 cells, HEK-Blue™-hNOD2 cells, were developed by Invivogen (catalogue number: hkb-hnod2) using co-transfection of the human NOD2 gene and an optimized secreted embryonic alkaline phosphatase (SEAP) reporter gene into HTEK293 cells. […] Levels of SEAP were determined with HEK-Blue™ Detection (referred to as QUANTI-Blue solution), a cell culture medium that allows for real-time detection of SEAP. […]
measured property: pIC50
# pIC50 = -log10(concentration in molar units)

{"columns": ["molecule", "pIC50"],
 "data": [
  ["[2H]C([2H])([2H])NC(=O)c1cc2c(Oc3c(C)cc(CC(=O)Nc4cnn(C(C)(C)C)c4)cc3Cl)ccnc2cc1F [Compound 586]", 9.22],
  ["CNC(=O)c1cc2c(Oc3ccc(CC(=O)Nc4cnn(C(C)(C)C)c4)cc3C)ccnc2cc1F [Compound 490]", 10.00],
  ["Cc1c(Oc2ccnc3ccc(S(=N)(=O)C4CC4)cc23)ccc(CC(=O)Nc2cnn(C34CC(C3)C4)c2)c1F (single isomer, unassigned) [Compound 528]", 9.10],
  ["Cc1cc(CC(=O)Nc2cnn(C(C)(C)C)c2)c(F)cc1Oc1ccnc2ccc(C(=O)N(C)C3(C)CC3)cc12 [Compound 519]", 9.22],
  ["CC(C)(C)n1cc(NC(=O)Cc2cc(Cl)c(Oc3ccnc4ccc(S(=N)(=O)C5CC5)cc34)cc2F)cn1 (single isomer, unassigned) [Compound 533]", 7.98],
  ["[2H]C([2H])([2H])C(n1cc(NC(=O)Cc2cc(C)c(Oc3ccnc4cc(F)c(C(=O)NC)cc34)cc2F)cn1)(C([2H])([2H])[2H])C([2H])([2H])[2H] [Compound 596]", 9.15],
  ["Cc1cc(CC(=O)Nc2cnn(C(C)(C)C)c2)c(F)cc1Oc1ccnc2ccc(CC(N)=O)cc12 [Compound 566]", 7.95],
  ["Cc1c(Oc2ccnc3ccc(C4(S(C)(=O)=O)CC4)cc23)cc(F)c(CC(=O)Nc2cnn(C(C)(C)C)c2)c1F [Compound 607]", 8.21]
]}

Missing value: pIC50, human NOD2 signaling, entry CC(C)(C)n1cc(NC(=O)Cc2ccc(Oc3ccnc4ccc(S(C)(=N)=O)cc34)cc2F)cn1 (centres unmarked) [Compound 43] . Fill in? 7.41

Missing value: pIC50, human NOD2 signaling, entry Cc1cc(CC(=O)Nc2cnn(C(C)(C)C)c2)c(F)cc1Oc1ccnc2ccc(-c3cccnc3C)cc12 [Compound 508] . Fill in? 8.60

Missing value: pIC50, human NOD2 signaling, entry CNC(=O)c1ccc2nccc(Oc3c(C)cc(CC(=O)Nc4cnn(C56CC(C5)C6)c4)cc3C)c2c1 [Compound 588] . Fill in? 7.44

Missing value: pIC50, human NOD2 signaling, entry Cc1cc(CC(=O)Nc2cnn(C(C)(C)C)c2)ccc1Oc1ccnc2ccc(S(=N)(=O)C(C)C)cc12 (single isomer, unassigned) [Compound 547] . Fill in? 8.89

Missing value: pIC50, human NOD2 signaling, entry [2H]C([2H])([2H])NC(=O)c1ccc2nccc(Oc3ccc(CC(=O)Nc4cnn(C56CC(C5)C6)c4)cc3C)c2c1 [Compound 559] . Fill in? 9.00

Missing value: pIC50, human NOD2 signaling, entry CNC(=O)c1cc2c(Oc3cc(F)c(CC(=O)Nc4cnn(C(C)(C)C)c4)cc3C)ccnc2cc1Cl [Compound 565] . Fill in? 8.16

Missing value: pIC50, human NOD2 signaling, entry Cc1cc(CC(=O)Nc2cnn(C(C)(C)C)c2)c(F)cc1Oc1ccnc2cc(F)c(C(N)=O)cc12 [Compound 465] . Fill in? 9.70

Missing value: pIC50, human NOD2 signaling, entry NC(=O)c1ccc2nccc(Oc3cc(F)c(CC(=O)Nc4cnn(C56CC(C5)C6)c4)cc3Cl)c2c1 [Compound 509] . Fill in? 7.85

Missing value: pIC50, human NOD2 signaling, entry [2H]C([2H])([2H])NC(=O)c1ccc2nccc(Oc3cc(F)c(CC(=O)Nc4cnn(C56CC(C5)C6)c4)cc3C)c2c1 (single isomer, unassigned) [Compound 563] . Fill in? 8.72

Missing value: pIC50, human NOD2 signaling, entry Cc1cc(CC(=O)Nc2cnn(C(C)(C)C)c2)c(F)cc1Oc1ccnc2ccc(-c3nc[nH]n3)cc12 [Compound 484] . Fill in? 9.40

Missing value: pIC50, human NOD2 signaling, entry Cc1cc(CC(=O)Nc2cnn(C(C)(C)C)c2)c(F)cc1Oc1ccnc2ccc(C(=O)N3[C@H](C)CNC[C@@H]3C)cc12 [Compound 470] . Fill in? 8.96

Missing value: pIC50, human NOD2 signaling, entry [2H]C([2H])([2H])NC(=O)c1ccc2nccc(Oc3cc(F)c(CC(=O)Nc4cnn(C(C)(C)C)c4)cc3C)c2c1 [Compound 492] . Fill in? 8.43

Missing value: pIC50, human NOD2 signaling, entry [2H]C([2H])([2H])C(n1cc(NC(=O)Cc2cc(C)c(Oc3ccnc4ccc(C(=O)NC)cc34)cc2F)cn1)(C([2H])([2H])[2H])C([2H])([2H])[2H] [Compound 622] . Fill in? 8.70

Missing value: pIC50, human NOD2 signaling, entry COc1cc2nccc(Oc3ccc(CC(=O)Nc4cnn(C(C)(C)C)c4)cc3C(F)F)c2cc1S(C)(=O)=O [Compound 413] . Fill in? 8.60

Missing value: pIC50, human NOD2 signaling, entry [2H]C([2H])([2H])NC(=O)c1cc2c(Oc3ccc(CC(=O)Nc4cnn(C(C)(C)C)c4)cc3C(F)F)ccnc2cc1F [Compound 577] . Fill in? 8.70

Missing value: pIC50, human NOD2 signaling, entry Cc1cc(CC(=O)Nc2cnn(C(C)(C)C)c2)ccc1Oc1ccnc2cc(C)c(S(C)(=O)=O)cc12 [Compound 495] . Fill in? 9.30

Missing value: pIC50, human NOD2 signaling, entry [2H]C([2H])([2H])NC(=O)c1ccc2nccc(Oc3ccc(CC(=O)Nc4cnn(C(C)(C)C)c4)cc3C)c2c1 [Compound 491] . Fill in? 10.00

Missing value: pIC50, human NOD2 signaling, entry Cc1cc(CC(=O)Nc2cnn(C(C)(C)C)c2)ccc1Oc1ccnc2ccc(C(O)C(N)=O)cc12 (single isomer, unassigned) [Compound 609] . Fill in? 7.33

====

Target: RIPK2 enzyme (Homo sapiens, UniProt O43353)
Construct: purchased Carna 09-128
Sequence (O43353 1-299 limits assumed): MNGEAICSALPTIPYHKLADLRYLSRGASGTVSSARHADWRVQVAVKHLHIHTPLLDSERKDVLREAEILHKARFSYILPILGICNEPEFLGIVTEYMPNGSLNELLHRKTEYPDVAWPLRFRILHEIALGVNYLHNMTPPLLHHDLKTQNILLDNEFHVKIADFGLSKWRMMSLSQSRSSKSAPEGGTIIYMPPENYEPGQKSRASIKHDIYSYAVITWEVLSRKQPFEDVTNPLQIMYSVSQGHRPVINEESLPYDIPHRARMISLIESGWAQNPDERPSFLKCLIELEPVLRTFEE
Assay: RIPK2 inhibition (ADP-Glo Kinase Assay)
Type: biochemical
Settings: RIPK2 5 nM, ATP 150 μM, MBP substrate, read-out: RIPK2 IC50
pIC50: −log10 of the molar value.
Collected pIC50 values appear next to each entry.

Use these answered entries as a reference point.
{"columns": ["molecule", "target under test", "pIC50"],
 "data": [
  ["Cc1cc(CC(=O)Nc2cnn(C(C)(C)C)c2)c(F)cc1Oc1ccnc2ccc(N3CCOC3=O)cc12", "RIPK2 enzyme (Homo sapiens, UniProt O43353)", "> 8.60"],
  ["Cc1cc(CC(=O)Nc2cnn(C(C)(C)C)c2)c(F)cc1Oc1ccnc2ccc(C(=O)N3CCC3)cc12", "RIPK2 enzyme (Homo sapiens, UniProt O43353)", "> 8.60"],
  ["Cc1cc(CC(=O)Nc2cnn(C(C)(C)C)c2)c(F)cc1Oc1ccnc2ccc(-c3nnccc3C)cc12", "RIPK2 enzyme (Homo sapiens, UniProt O43353)", "> 8.60"],
  ["Cc1cc(CC(=O)Nc2cnn(C(C)(C)C)c2)ccc1Oc1ccnc2ccc(OC3CCCNC3=O)cc12 (stereo not drawn)", "RIPK2 enzyme (Homo sapiens, UniProt O43353)", "> 8.60"],
  ["Cc1cc(CC(=O)Nc2cnn(C(C)(C)C)c2)ccc1Oc1ccnc2ccc(C(C)(O)C(N)=O)cc12 (single isomer, unassigned) [Compound 615]", "RIPK2 enzyme (Homo sapiens, UniProt O43353)", 8.55]
]}

Okay, next one:
Request the reported pIC50 associated with [2H]C([2H])([2H])NC(=O)c1ccc2nccc(Oc3cc(F)c(CC(=O)Nc4cnn(C56CC(C5)C6)c4)cc3C)c2c1 (single isomer, unassigned) > 8.60

====

System: human NOD2 signaling
Test: Inhibition of human NOD2 signaling in HEK-Blue-hNOD2 cells (L18-MDP stimulated, SEAP reporter)
Format: cell-based
Conditions: Homo sapiens, HEK-Blue hNOD2, HEK-Blue-hNOD2 cells, NOD2 ligand stimulation, SEAP reporter; read-out: hNOD2 IC50
measured property: pIC50
# pIC50 = -log10(concentration in molar units)

Use these answered entries as a reference point.
{"columns": ["compound", "pIC50"],
 "data": [
  ["Cc1c(Oc2ccnc3cc(F)c(C(N)=O)cc23)ccc(CC(=O)Nc2cnn(C(C)(C)C)c2)c1C#N [Compound 610]", 8.68],
  ["CNC(=O)c1ccc2nccc(Oc3cc(F)c(CC(=O)Nc4cnn(C56CC(C5)C6)c4)cc3C)c2c1 [Compound 502]", 9.10],
  ["CC(C)(C)n1cc(NC(=O)Cc2cc(Cl)c(Oc3ccnc4ccc(C(N)=O)cc34)cc2F)cn1 [Compound 497]", 9.22],
  ["[2H]C([2H])([2H])C(n1cc(NC(=O)Cc2ccc(Oc3ccnc4ccc(S(C)(=O)=O)cc34)c(C)c2)cn1)(C([2H])([2H])[2H])C([2H])([2H])[2H] [Compound 597]", 8.89],
  ["Cc1cc(CC(=O)Nc2cnn(C(C)(C)C)c2)c(F)cc1Oc1ccnc2ccc(S(=N)(=O)C3CC3)cc12 (single isomer, unassigned) [Compound 466]", 8.60],
  ["Cc1cc(CC(=O)Nc2cnn(C(C)(C)C)c2)c(F)cc1Oc1ccnc2ccc(S(C)(=O)=O)cc12 [Compound 113]", 8.66],
  ["Cc1cc(CC(=O)Nc2cc(C(C)(C)C)[nH]n2)cc(C)c1Oc1ccnc2cc(F)c(C(N)=O)cc12 [Compound 618]", 9.52],
  ["Cc1cc(CC(=O)Nc2cnn(C(C)(C)C)c2)ccc1Oc1ccnc2cc(F)c(S(=N)(=O)C3CC3)cc12 (single isomer, unassigned) [Compound 553]", 8.25],
  ["Cc1cc(CC(=O)Nc2cnn(C(C)(C)C)c2)ccc1Oc1ccnc2ccc(OC3CCNCC3)cc12 [Compound 83]", 8.23],
  ["[2H]C([2H])([2H])c1cc(CC(=O)Nc2cnn(C(C)(C)C)c2)ccc1Oc1ccnc2ccc(S(=O)(=O)C([2H])([2H])[2H])cc12 [Compound 485]", 9.52]
]}

Request the reported pIC50 associated with Cc1cc(CC(=O)Nc2cnn(C(C)(C)C)c2)c(F)cc1Oc1ccnc2ccc(C(F)(F)C(N)=O)cc12 [Compound 572] 8.96

Request the reported pIC50 associated with CN1CCC(Oc2ccc3nccc(Oc4cnc(CC(=O)Nc5cnn(C(C)(C)C)c5)c(F)c4)c3c2)CC1 [Compound 78] 7.49

Request the reported pIC50 associated with Cc1cc(CC(=O)Nc2cnn(C(C)(C)C)c2)cc(C)c1Oc1ccnc2ccc(C(N)=O)cc12 [Compound 505] 8.46

Request the reported pIC50 associated with Cc1cc(CC(=O)Nc2cnn(C(C)(C)C)c2)c(F)cc1Oc1ccnc2ccc(-c3cnccc3C)cc12 [Compound 507] 9.52
